# TGT: Metabotropic glutamate receptor 8 (Rattus norvegicus) (UniProt P70579)
# Sequence (P70579 whole entry, looked up): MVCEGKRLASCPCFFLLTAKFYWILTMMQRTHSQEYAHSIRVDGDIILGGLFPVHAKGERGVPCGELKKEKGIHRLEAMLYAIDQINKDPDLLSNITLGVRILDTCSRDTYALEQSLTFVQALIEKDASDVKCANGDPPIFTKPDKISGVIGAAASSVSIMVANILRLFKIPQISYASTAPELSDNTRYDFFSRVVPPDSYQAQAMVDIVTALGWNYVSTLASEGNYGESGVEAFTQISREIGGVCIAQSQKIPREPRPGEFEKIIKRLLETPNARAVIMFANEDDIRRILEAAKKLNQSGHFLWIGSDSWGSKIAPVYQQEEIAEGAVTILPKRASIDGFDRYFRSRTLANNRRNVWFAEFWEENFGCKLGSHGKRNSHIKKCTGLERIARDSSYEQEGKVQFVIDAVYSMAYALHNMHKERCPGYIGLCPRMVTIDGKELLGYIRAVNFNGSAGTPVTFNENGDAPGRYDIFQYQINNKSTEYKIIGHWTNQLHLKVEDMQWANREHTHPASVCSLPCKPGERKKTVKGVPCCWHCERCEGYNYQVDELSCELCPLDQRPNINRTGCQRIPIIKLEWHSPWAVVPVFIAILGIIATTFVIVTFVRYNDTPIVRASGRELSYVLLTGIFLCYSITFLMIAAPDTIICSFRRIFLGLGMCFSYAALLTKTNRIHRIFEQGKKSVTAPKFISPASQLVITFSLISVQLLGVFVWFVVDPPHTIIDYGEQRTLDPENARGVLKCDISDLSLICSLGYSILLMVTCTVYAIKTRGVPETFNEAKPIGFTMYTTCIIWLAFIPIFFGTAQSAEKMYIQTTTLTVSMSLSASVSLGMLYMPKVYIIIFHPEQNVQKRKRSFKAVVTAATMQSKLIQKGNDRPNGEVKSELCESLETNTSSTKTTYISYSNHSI
# METHOD DESCRIPTION: mGlu8 positive allosteric modulator potency, confirmation, cell-based, rat receptor, GIRK thallium flux (AID 743462)
MEASURE NAME: pEC50
When answering, recall that pEC50 equals minus log10 of the concentration in mol/L, and write that number alone.

Input: Check Metabotropic glutamate receptor 8 (Rattus norvegicus) (UniProt P70579) data and give pEC50 for COC(=O)c1ccc(-n2c(C)cc(C(=O)CSc3ccc(NC(C)=O)cc3)c2C)cc1 .
Output: 5.74
